Molecular target: T1, mouse tenascin-C rCd4-His-FBG (rat; mouse, UniProt P05540 207-392, limits assumed)
T1 construct: domain: domains 3 and 4; C-terminal FBG fusion; biotinylated in the ELISA screen; also called Mu TNC; mouse TNC rCd4-His-FBG; not shown: 6His tag
T1 sequence (chain (part 1 of 2)): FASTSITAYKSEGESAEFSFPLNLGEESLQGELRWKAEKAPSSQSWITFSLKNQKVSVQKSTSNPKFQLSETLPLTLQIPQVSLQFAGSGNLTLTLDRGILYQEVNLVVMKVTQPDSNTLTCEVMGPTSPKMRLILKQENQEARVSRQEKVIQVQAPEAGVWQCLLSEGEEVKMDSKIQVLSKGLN
T1 sequence (chain (part 2 of 2)): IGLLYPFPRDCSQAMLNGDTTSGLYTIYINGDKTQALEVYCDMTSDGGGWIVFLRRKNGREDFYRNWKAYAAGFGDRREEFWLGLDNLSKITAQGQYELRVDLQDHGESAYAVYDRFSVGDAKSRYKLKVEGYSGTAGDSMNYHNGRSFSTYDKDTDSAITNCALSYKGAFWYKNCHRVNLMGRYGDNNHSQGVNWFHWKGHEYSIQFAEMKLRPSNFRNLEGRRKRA
Assay: SPR, captured purified IgG4, 37 C
measured.attribute: koff (s⁻¹)
Respond numerically; units are s⁻¹ and should not be typed.

Inquiry: Need koff of 165_13_B1 human IgG4 (antibody, V domains shown, human IgG4 with hinge S241P) VH: QVQLVESGGGLVQPGRSLRLSCAASGFTFDDYAMHWVRQAPGKGLEWVSGISGSGGSTYYADSVKGRFTISRDNAKNSLYLQMNSLRAEDTALYYCAKVMSSMEDAFDIWGQGTMVTVSS VL: DIQMTQSPASLPTPVGDRVTITCRASQYIQGFLNWYQQKPGKAPKLLIYDASNLETGVPSRFSGSGSGTDFTLTISSLQPEDFATYYCQQSYSTPQTFGQGTKVDIKR , thanks.
Reply text: 0.000706

Cited source for all entries: patent US20170306005A1
